test: Drug level in C57BL/6J mouse liver at 50 mg/kg, po measured after 1 hr by LC-MS analysis; format: ADME, organism-based; conditions: read-out: Drug uptake
metric.name: concentration at 1 h

>>> df
                         smiles_string           metric_name   result
0  Fc1cccc(Nc2nc3nonc3nc2Nc2ccccc2F)c1  concentration at 1 h  13.4 µM

---

test: Drug level in C57BL/6J mouse kidney at 50 mg/kg, po measured after 1 hr by LC-MS analysis; assay type: ADME, organism-based; details: read-out: Drug uptake
metric.name: concentration at 1 h (µM)

>>> df
                         smiles_string  unit_of_measurement  numeric_value
0  Fc1cccc(Nc2nc3nonc3nc2Nc2ccccc2F)c1                   µM           4.83

---

system: L6; assay: Induction of mitochondrial uncoupling in rat L6 cells assessed as oxygen consumption rate up to 50 uM measured over 90 mins by oxygen consumption rate by seahorse assay relative to <= 50 uM BAM15; conditions: Mitochondria
metric.name: Activity (%)

>>> df
                               smiles_string  metric_name  numeric_value
 0       Fc1ccc(Nc2nc3nonc3nc2Nc2ccccc2F)cc1     Activity             65
 1  FC(F)(F)c1ccccc1Nc1nc2nonc2nc1Nc1ccccc1C(F)(F)F     Activity             39
 2    Oc1ccc(F)c(Nc2nc3nonc3nc2Nc2ccccc2F)c1     Activity             45
 3           C1CCC(Nc2nc3nonc3nc2NC2CCCC2)C1     Activity             20
 4     Cc1cccc(Nc2nc3nonc3nc2Nc2cccc(C)c2)c1     Activity             22
 5  Fc1ccccc1Nc1nc2nonc2nc1Nc1ccccc1OC(F)(F)F     Activity             67
 6      COc1ccc(Nc2nc3nonc3nc2Nc2ccccc2F)cc1     Activity             52
 7  CCOc1cccc(Nc2nc3nonc3nc2Nc2cccc(OCC)c2)c1     Activity             45
 8  Fc1ccccc1Nc1nc2nonc2nc1Nc1cccc(OC(F)(F)F)c1     Activity              8
 9    Fc1ccc(Nc2nc3nonc3nc2Nc2ccccc2F)c(F)c1     Activity             22
10  FC(F)(F)Oc1ccc(Nc2nc3nonc3nc2Nc2ccc(OC(F)(F)F)cc2)cc1     Activity             14

---

assay: Drug level in C57BL/6J mouse heart at 50 mg/kg, po measured after 1 hr by LC-MS analysis; assay type: ADME, organism-based; conditions: read-out: Drug uptake
metric.name: concentration at 1 h (nM)

>>> df
                         smiles_string           metric_name  numeric_value
0  Fc1cccc(Nc2nc3nonc3nc2Nc2ccccc2F)c1  concentration at 1 h           2090

---

experiment: Drug level in C57BL/6J mouse quadricep muscle at 50 mg/kg, po measured after 1 hr by LC-MS analysis; type: ADME, organism-based, Quadriceps femoris; settings: read-out: Drug uptake
metric.name: concentration at 1 h (nM)

>>> print(df.to_string())
                         smiles_string           metric_name  unit_of_measurement  numeric_value
0  Fc1cccc(Nc2nc3nonc3nc2Nc2ccccc2F)c1  concentration at 1 h                   nM            260

---

tested on: L6; assay: Induction of mitochondrial uncoupling in rat L6 cells assessed as oxygen consumption rate up to 50 uM measured over 90 mins by oxygen consumption rate by seahorse assay relative to <= 50 uM BAM15; details: Mitochondria
In this section we review reported Activity values for a set of compounds.
metric.name: Activity (%)

                               smiles_string  tgt  numeric_value
 0          Fc1ccccc1Nc1nc2nonc2nc1Nc1ccccn1   L6             20
 1  FC(F)(F)Oc1cccc(Nc2nc3nonc3nc2Nc2cccc(OC(F)(F)F)c2)c1   L6             53
 2     Cc1ccc(Nc2nc3nonc3nc2Nc2ccc(C)cc2)cc1   L6             59
 3   COc1ccc(Nc2nc3nonc3nc2Nc2ccc(OC)cc2)cc1   L6             14
 4       CCOc1ccccc1Nc1nc2nonc2nc1Nc1ccccc1F   L6             15
 5  Fc1ccccc1Nc1nc2nonc2nc1Nc1ccccc1C(F)(F)F   L6             57
 6         Cc1ccccc1Nc1nc2nonc2nc1Nc1ccccc1F   L6             58
 7      Fc1ccccc1Nc1nc2nonc2nc1Nc1cccc(F)c1F   L6             15
 8     CCOc1cccc(Nc2nc3nonc3nc2Nc2ccccc2F)c1   L6             28
 9   COc1cccc(Nc2nc3nonc3nc2Nc2cccc(OC)c2)c1   L6             43
10          Fc1ccccc1Nc1nc2nonc2nc1Nc1ccccc1   L6             65
11  FC(F)(F)c1cccc(Nc2nc3nonc3nc2Nc2cccc(C(F)(F)F)c2)c1   L6             28

---

experiment: Drug level in C57BL/6J mouse brain at 50 mg/kg, po measured after 1 hr by LC-MS analysis; assay type: ADME, organism-based; conditions: read-out: Drug uptake
metric.name: concentration at 1 h (nM)

>>> df
                         smiles_string  unit_of_measurement  numeric_value
0  Fc1cccc(Nc2nc3nonc3nc2Nc2ccccc2F)c1                   nM            850

Origin of the recorded values: ChEMBL document CHEMBL4354849
